# Test system: SEM cells
# method: cell viability relative to DMSO control; higher = less cytotoxic
# condition: RPMI 5 mM glucose + 10% dialyzed FBS; 48 h; 0.0211 µM
This section presents compounds with their documented cell viability values.
Be sure to follow the number with its unit.

The examples below pair each entry with its known result.
COc1ccc(-c2cc3c(C)nc(N)nc3n([C@H]3CC[C@H](OCCO)CC3)c2=O)cn1 75.3%
COc1cc([S+](C)(=O)[O-])ccc1Nc1nc2ccc(-c3ccc(NC(=O)[C@H](C)c4ccc(F)cc4)cc3)cn2n1 90.4%

For the next question, use this compound.
# input For the compound COCCNCCCn1c(C(=O)CF)c(-c2ccc(C)cc2)c2c(N)ncnc21 , what cell viability is on record?
# output 104%

----------
# Tested on: SEM cells
# method: AUC of viability dose-response curve (% viability x log10 dose units); higher = less sensitive
# condition: HPLM + 10% dialyzed FBS; 48 h
This section presents molecules with their documented AUC of viability dose-response curve values.
// keep it numeric: no unit symbol after the value

The examples below pair each entry with its known result.
CC/C(=C(\c1ccccc1)c1ccc(OCCN(C)C)cc1)c1ccccc1 434
O=C(Nc1ccncc1)C(=O)c1cn(Cc2ccc(Cl)cc2)c2ccccc12 249

# input For the molecule Cc1nc(C(=O)NCC(=O)O)c(O)c2ccc(Oc3ccccc3)cc12 , what AUC of viability dose-response curve is on record?
# output 459

----------
This section presents compounds with their documented cell viability values.
# Tested on: SEM cells
# method: cell viability relative to DMSO control; higher = less cytotoxic
# condition: RPMI 5 mM glucose + 10% FBS; 48 h; 1.71 µM
Be sure to follow the number with its unit.

compound	obs.value
CC/C(=C(\c1ccccc1)c1ccc(OCCN(C)C)cc1)c1ccccc1	99.9%
NNC(=O)c1ccncc1	46.7%
Cc1ccccc1C(C(=O)NC1CCCC1)N(C(=O)Cn1cnc2ccccc21)c1cccc(F)c1 (stereo not given)	122%
CC(C)N(CCCNC(=O)Nc1ccc(C(C)(C)C)cc1)C[C@H]1O[C@@H](n2cc(Br)c3c(N)ncnc32)[C@H](O)[C@@H]1O	104%
Cc1ccc([S+](=O)([O-])NC(=O)NN2CC3CCCC3C2)cc1 (stereo not given)	76.6%

# input For the compound O=C(O)c1nn(Cc2ccc(Cl)cc2Cl)c2ccccc12 , what cell viability is on record?
# output 135%

----------
# Test system: NOMO1
# method: cell viability relative to DMSO control; higher = less cytotoxic
# condition: HPLM + 10% dialyzed FBS; 48 h; 5.12 µM
Decide using cell viability alone. Strictly below 90%: met. Equal to or above 90%: not met.

Record excerpt, results attached:
compound	answer.label
O=C1N\N=C(\C[C@@H]2CCN(C2)C(=O)C3CC3)N1C4=CC=C(C=C4)C5=CC=C6OC=CC6=C5	not met
CNC(=O)c1cc(Oc2ccc(NC(=O)Nc3ccc(Cl)c(C(F)(F)F)c3)c(F)c2)ccn1	met
COc1c(C)c2c(c(O)c1C/C=C(\C)CCC(=O)OCCN1CCOCC1)C(=O)OC2	met
CNC(=O)c1cc(COc2nnc(Nc3ccc(Cl)cc3)c3ccoc23)ccn1	not met
O=C(/C=C/c1cccnc1)NCCCCC1CCN(C(=O)c2ccccc2)CC1	met
CCOC\1=C(/C(=O)NC2=CC=C(OC3=C(Cl)C(=NC=C3)N)C(=C2)F)C(=O)N(\C=C1)C4=CC=C(F)C=C4	met
CCNC(=O)c1noc(-c2cc(C(C)C)c(O)cc2O)c1-c1ccc(CN2CCOCC2)cc1	met
COc1ccccc1OCC(O)CN1CCN(CC(=O)Nc2c(C)cccc2C)CC1 (stereo not drawn)	not met

# ---- query compound ----
# input Identify whether the compound NC(=O)Cc1cccc(C(=O)c2ccccc2)c1N records cell viability below 90%.
# output not met

----------
# System: SEM cells
# method: cell viability relative to DMSO control; higher = less cytotoxic
# condition: HPLM + 10% dialyzed FBS; 48 h; 0.00234 µM
recorded.metric: cell viability (%)
Provide only the numeric value, understood in %.

The examples below pair each entry with its known result.
compound	unit.symbol	cell viability
Oc1ccc(C2CNCCc3c2cc(O)c(O)c3Cl)cc1 (stereo not given)	%	103
COc1c(C)c2c(c(O)c1C/C=C(\C)CCC(=O)OCCN1CCOCC1)C(=O)OC2	%	110
CCNC(=O)c1noc(-c2cc(C(C)C)c(O)cc2O)c1-c1ccc(CN2CCOCC2)cc1	%	97.5
O=P1(NCCCl)OCCCN1CCCl (stereo not given)	%	85.6

# input For the compound COC1=CC(=C2C(=O)N(COC/3=C/C(=O)N4\C=C/C=C(OCCN5CCCCC5)\C4=N3)[S+]([O-])(=O)C2=C1)C(C)C , what cell viability is on record?
# output 119

----------
# Test system: SEM cells
# method: cell viability relative to DMSO control; higher = less cytotoxic
# condition: RPMI 5 mM glucose + 10% FBS; 48 h; 0.19 µM
recorded.metric: cell viability (%)
Provide only the numeric value, understood in %.

The examples below pair each entry with its known result.
compound	assayed.system	unit.symbol	cell viability
CC(C)(OCc1nn(Cc2ccccc2)c2ccccc12)C(=O)O	SEM cells	%	93.9
C=C1C(=O)O[C@@H]2[C@H]3O[C@]3(C)CC/C=C(\C)CC[C@@H]12	SEM cells	%	73
CN1C(=O)C(=C/2N(C(=O)N(C3CC3)C(=O)C2=C1/NC4=CC=C(I)C=C4F)C5=CC=CC(=C5)NC(C)=O)\C	SEM cells	%	114
CNCCN(C)Cc1c[nH]nc1-c1ccc(O[C@H]2C[C@H](OCCC3CCOCC3)C2)cc1	SEM cells	%	120

# input For the compound CC(C)N(CCCNC(=O)Nc1ccc(C(C)(C)C)cc1)C[C@H]1O[C@@H](n2cc(Br)c3c(N)ncnc32)[C@H](O)[C@@H]1O , what cell viability is on record?
# output 109

# input For the compound Clc1ccc(C(Cn2ccnc2)OCc2ccsc2Cl)c(Cl)c1 (stereo unspecified) , what cell viability is on record?
# output 121

# input For the compound CN(C)c1ccccc1CN1CCCN(Cc2ccccc2N(C)C)C1c1ccncc1 , what cell viability is on record?
# output 99.3

# input For the compound OCCN1CCN(CCCN2c3ccccc3Sc3ccc(C(F)(F)F)cc32)CC1 , what cell viability is on record?
# output 122

# input For the compound N[S+](=O)([O-])c1cc2c(cc1Cl)NCN[S+]2(=O)[O-] , what cell viability is on record?
# output 107

# input For the compound CON(C)C(=O)N1\N=C(/S[C@]1(CCCN)C2=CC=CC=C2)C3=CC(=CC=C3F)F , what cell viability is on record?
# output 21.5

# input For the compound COC(=O)[C@@H]1CC2=CC(=O)CC[C@]2(C)[C@@]23O[C@@H]2C[C@@]2(C)[C@@H](CC[C@@]24CCC(=O)O4)[C@H]13 , what cell viability is on record?
# output 115

----------
# Tested on: P12-Ichikawa
# method: cell viability relative to DMSO control; higher = less cytotoxic
# condition: RPMI 5 mM glucose + 10% FBS; 48 h; 0.19 µM
recorded.metric: cell viability (%)
Provide only the numeric value, understood in %.

The examples below pair each entry with its known result.
molecule	unit.symbol	cell viability
Oc1ccc(C2CNCCc3c2cc(O)c(O)c3Cl)cc1 (centres undefined)	%	98.8
NC(=O)[C@@H](CCC(F)(F)F)N(Cc1ccc(-c2ncon2)cc1F)[S+](=O)([O-])c1ccc(Cl)cc1	%	88.8
CNC(=O)c1cc(COc2nnc(Nc3ccc(Cl)cc3)c3ccoc23)ccn1	%	113

For the next question, use this molecule.
# input Observed cell viability on P12-Ichikawa for Cc1n[nH]c(C)c1Cc1sc2c(c1C(=O)N1C[C@H](O)CO1)c(=O)n(C)c(=O)n2CC(C)C , please.
# output 107

----------
This section presents molecules with their documented cell viability values.
# Test system: NOMO1
# method: cell viability relative to DMSO control; higher = less cytotoxic
# condition: RPMI 5 mM glucose + 10% dialyzed FBS; 48 h; 1.71 µM

CN1CCN(CC1)C/2=N/C3=CC=CC=C3NC4=C2C=C(C)S4 89.4%
COc1ccc(-c2cc3c(C)nc(N)nc3n([C@H]3CC[C@H](OCCO)CC3)c2=O)cn1 41.2%
COC1=C(CC=C(C)C)C2=C(\C=C/C(=O)O2)C=C1 113%

For the next question, use this molecule.
# input For the molecule CCOC(=O)c1c(/C(C#N)=C\N)c2ccc(Cl)c(Cl)c2n1C , what cell viability is on record?
# output 86.8%

----------
This section presents molecules with their documented cell viability values.
# System: SEM cells
# method: cell viability relative to DMSO control; higher = less cytotoxic
# condition: RPMI 5 mM glucose + 10% dialyzed FBS; 48 h; 15.4 µM
Provide only the numeric value, understood in %.

The examples below pair each entry with its known result.
CCC[S+](=O)([O-])Nc1ccc(F)c(C(=O)c2c[nH]c3ncc(-c4ccc(Cl)cc4)cc23)c1F 122
C[C@H]1CN(C[C@@H](C)N1)C2=C(F)C3=C(C(=C2F)N)C(=O)\C(=C/N3C4CC4)C(O)=O 88.7
Cc1ccc(C)c(OCCCC(C)(C)C(=O)O)c1 108
CNC(=O)c1cc(COc2nnc(Nc3ccc(Cl)cc3)c3ccoc23)ccn1 70.4
CC[C@@H](C)[C@H](NC(=O)[C@H](CC1CCCCC1)NC(=O)c1ccno1)C(=O)N1CCC2(CCc3ccccc32)CC1 93.9

# input For the molecule CNCCN(C)Cc1c[nH]nc1-c1ccc(O[C@H]2C[C@H](OCCC3CCOCC3)C2)cc1 , what cell viability is on record?
# output 73.1
